Cited source for all entries: ChEMBL document CHEMBL1201862

# System: OVCAR-5
# Test Details: NCI tumour cell line growth inhibition, 48 h
Active and inactive are the calls of the source. Cut-off read from the data, not from the text of the source: active = GI50 up to about 1.1 µM and inactive = higher.
Endpoint Label: GI50

Worked examples follow.
Cc1ccc(/C=N/NS(=O)(=O)c2ccc(/C=C3\NC(=O)NC3=O)cc2)cc1 | 35.9 µM (inactive)
Clc1cc(C(c2cc(Cl)sc2Cl)c2cc(Cl)sc2Cl)c(Cl)s1 | > 100 µM (inactive)

Quick one: GI50 for CC(C)(C)OC(=O)NC1CCCC1=O (stereo not drawn) ? > 100 µM (inactive)

---

Below, each entry is listed alongside its reported GI50.
# Tested on: RPMI-8226
# Test Details: NCI tumour cell line growth inhibition, 48 h
Activity calls are given as the source filed them. Cut-off read from the data, not from the text of the source: active = GI50 up to about 1.1 µM and inactive = higher.

Worked examples follow.
CCCc1nc(N)nc(C(=O)Nc2cccc(C(F)(F)F)c2)c1CC | 76.6 µM (inactive)
CCCCN1CSC(=S)N(Cc2ccccc2)C1 | 24.9 µM (inactive)
Cc1ccc(S(=O)(=O)n2cncc2CO)cc1 | > 100 µM (inactive)
C=C1c2nc3ccccc3n2C=C(c2ccccc2)N1c1ccc([N+](=O)[O-])cc1 | 8.81 µM (inactive)

Lab note: next compound to report on.
Quick one: GI50 for COC(=O)[C@@]1(C)/C(=N/NS(=O)(=O)c2ccc(C)cc2)CCC[C@@H]1C ? 30.8 µM (inactive)

---

Consider the following GI50 values measured on HCT-15.

Worked examples follow.
CCCc1nc(N)nc(C(=O)Nc2cccc(C(F)(F)F)c2)c1CC | > 100 µM
CC(C)(O)C1CC[C@]2(C)[C@H]3CC[C@@H]4[C@@]5(C)CCCC(C)(C)[C@@H]5CC[C@@]4(C)[C@]3(C)CC[C@@H]12 (stereo partly specified) | > 100 µM
CCOC(=O)c1ccc2nc3n(c2c1)C(c1c(F)cccc1F)SC3 (stereo unspecified) | > 100 µM
CC(=O)Nc1ccc(C(=O)N2N=C(C)/C(=C/c3ccccc3O)C2=O)cc1 | > 100 µM

Quick one: GI50 for O=C(O)CCNS(=O)(=O)c1ccc2ccccc2c1 ? > 100 µM

Quick one: GI50 for CN(NC(=O)c1cccs1)C1=NCCCN1 ? > 100 µM

---

# Test system: M14
# Test Details: NCI tumour cell line growth inhibition, 48 h
Active and inactive are the calls of the source. Rule as the data show it: active = GI50 up to about 1.1 µM and inactive = higher.
Could you please pick one outcome from this set? active, inactive

These solved cases illustrate the format of a correct answer.
COc1cc(OC)c2nc(C)c3c(c2c1)SCC3 | inactive
Cc1ccc(/N=C2\C(=O)C3=C(OC(C)(C)CC3)c3ccccc32)cc1 | active
CCOC(C[C@H](O[Si](C)(C)C(C)(C)C)[C@H]1COC(=S)S1)OCC | inactive
CC(C)c1cccc(C(C)C)c1OS(=O)(=O)NC(=O)OC(C(F)(F)F)C(F)(F)F | inactive
CC(=O)CC1=C(OC(C)C)C2(OCCO2)C1O (stereo not drawn) | inactive

Check the results log: what was the call for CCOc1ccccc1/N=N/C1C(=O)N(C(=O)CC(=O)Nc2ccccc2C)N=C1C (stereo not drawn) ? inactive

Check the results log: what was the call for COc1cc(/C=C/c2ccc(O)c(OC)c2)cc(OC)c1 ? inactive

Check the results log: what was the call for NC1C2C(CC(=O)O)OCC=C3CN4CCC1(C(=O)C(=O)O)C4CC32 (stereo not drawn) ? inactive

---

# Tested on: RXF 393
# Test Details: NCI tumour cell line growth inhibition, 48 h
Active and inactive are the calls of the source. No stated cut-off is given here; in the data, active = GI50 up to about 1.1 µM and inactive = higher.
Could you please pick one outcome from this set? active, inactive

These solved cases illustrate the format of a correct answer.
CCCCC1(N=[N+]=[N-])C(=O)C2C=CC=C3c4ccccc4N(C1=O)C32 (configuration not stated) | inactive
COC1(CC[C@H](C)COC2OC(CO)C(O)C(O)C2O)O[C@H]2C[C@H]3[C@@H]4CC=C5C[C@@H](OC6OC(CO)C(OC7OC(C)C(O)C(O)C7O)C(O)C6OC6OC(C)C(O)C(O)C6O)CC[C@]5(C)[C@H]4CC[C@]3(C)[C@H]2[C@@H]1C (some centres not stated) | inactive
Cc1ccc(-n2cc(-c3ccc(Cl)cc3)c3c2N=CN2N=C(c4cccs4)NC32)cc1 (configuration not stated) | inactive
CN(NC(=O)c1cccs1)C1=NCCCN1 | inactive

Check the results log: what was the call for CN(C)c1ccc(/C=C/C(=O)N[C@@H]2C(=O)N3[C@@H]2SC(C)(C)[C@@H]3C(=O)O)cc1 ? inactive

Check the results log: what was the call for CCOP(=O)(OCC)C1CC(n2cc(C)c(=O)[nH]c2=O)OC1CO (configuration not stated) ? inactive
